The measured values listed here are drawn from ChEMBL document CHEMBL1157539.

Tested on: Plasmodium falciparum
Test: GSK_TCMDC: Inhibition of Plasmodium falciparum Dd2 in whole red blood cells, using parasite LDH activity as an index of growth. Test compounds present at 2uM
Assay type: functional
Inhibition below 90% gives F; Inhibition at or above it gives T.

Some solved cases for reference:
Kindly determine if Inhibition recorded for CC[C@H]1CN2CC[C@@H]1C[C@H]2[C@H](O)c1cc(-c2ccc(F)cc2)nc2ccc(O)cc12.Cl is above or exactly 90%.
T

Note, next up: O=C(/C=C/c1ccc(Cl)c(Cl)c1)N(Cc1ccccc1)C1CCC(CN2CCC(c3c[nH]c4ccccc34)CC2)CC1 (stereo not drawn)
F

Further cases:
Kindly determine if Inhibition recorded for COc1coc(C(=O)NC2CCN(CC3(c4ccc(Cl)cc4)CCC3)CC2)c1OC is above or exactly 90%.
T

Note, next up: CC(C)C[C@H](Nc1ccc(C#N)c2ccccc12)C(=O)N[C@@H]1CCCc2ccccc21.O=C(O)C(F)(F)F
T

Note, next up: CCCCCC(C)C(C)c1cc(O)c2c(c1)OC(C)(C)c1cnccc1-2.Cl (stereo not drawn)
F

Note, next up: CC[C@H]1CN2CC[C@H]1C[C@H]2[C@@H](O)c1cc(OCCCN(C)C)nc2ccc(OC)cc12
F

Note, next up: COc1ccc(CN2CCN(CCOC(c3ccccc3)c3ccccc3)CC2)c(O)c1
F

----------
Tested on: Plasmodium falciparum
Assay: GSK_TCMDC: Inhibition of Plasmodium falciparum Dd2 in whole red blood cells, using parasite LDH activity as an index of growth. Test compounds present at 2uM
Assay type: functional
Inhibition below 80% gives class 0; Inhibition at or above it gives class 1.

Kindly determine if Inhibition recorded for CS(=O)(=O)Nc1ccc2c(C3CCN(CC4CCN(C(=O)/C=C/c5ccc(Cl)c(Cl)c5)CC4)CC3)c[nH]c2c1 is above or exactly 80%.
class 0

Note, next up: COc1cccc(C=CC(=O)NC2CCC(CN3CCC(c4c[nH]c5ccccc45)CC3)CC2)c1OC (stereo not drawn)
class 0

Note, next up: CC[C@H]1CN2CC[C@@H]1C[C@H]2[C@H](O)c1cc(-c2cc(Cl)cc(Cl)c2)nc2ccc(OC)cc12
class 1

Note, next up: CC(=O)C1(c2ccccc2)CCN(CCC2(c3ccc(Cl)c(Cl)c3)CN(C(=O)C3CCCCC3)CCO2)CC1 (stereo not drawn)
class 1

Note, next up: CCOC(C(=O)OCC1CCCN1C)(c1ccccc1)c1ccccc1 (stereo not drawn)
class 0

Note, next up: COc1cccc(C(=O)C2CC2CN2CC=C(c3c(C)[nH]c4ccccc34)CC2)c1 (stereo not drawn)
class 1

Note, next up: O=C(NC1CCC(CN2CCC(c3c[nH]c4ccccc34)CC2)CC1)c1cc(-c2ccccc2Cl)oc1C(F)(F)F (stereo not drawn)
class 0

Note, next up: CC[C@H]1CN2CC[C@@H]1C[C@H]2[C@H](O)c1cc(-c2ccccc2)nc2ccc(O)cc12.Cl
class 1

Note, next up: COC(=O)c1ccc(CC(C)NCC(O)c2cccc(C(F)(F)F)c2)cc1.Cl (stereo not drawn)
class 1

Note, next up: CC[C@H]1CN2CC[C@H]1C[C@H]2[C@H](OC(=O)c1ccccc1)c1cc(C#N)nc2ccc(OC)cc12
class 0

Note, next up: Oc1ccc2[nH]cc(C3=CCN(Cc4ccccc4)CC3)c2c1
class 0

Note, next up: COc1ccc(OC)c(C(O)C(C)NCc2cc(Cl)ccc2O)c1.Cl (stereo not drawn)
class 1

Note, next up: O=C(/C=C/c1ccc(Cl)c(Cl)c1)Nc1cccc(CN2CCC(c3c[nH]c4ccc(O)cc34)CC2)c1
class 1

Note, next up: CC(=O)Nc1ccc(OCCN(CC(F)(F)F)c2ccc(C#N)cc2C(F)(F)F)cc1
class 1

Note, next up: CCCCCCC(CC)c1cc(O)c2c(c1)OC(C)(C)c1ccncc1-2.Cl (stereo not drawn)
class 0

----------
Test system: Plasmodium falciparum
Experiment: GSK_TCMDC: Inhibition of Plasmodium falciparum 3D7 in whole red blood cells, using parasite LDH activity as an index of growth. Test compounds present at 2uM
Type: functional
Experimental Readout: Inhibition (%)
Enter your answer as a number in %; do not include the unit.

Consider the worked cases shown below.
State the recorded Inhibition for this entry: O=C(/C=C/c1ccccc1O)NC1CCC(CN2CCC(c3c[nH]c4ccccc34)CC2)CC1 (centres undefined)
100

Note, next up: CC[C@H]1CN2CC[C@H]1C[C@@H]2[C@@H](OC(=O)c1ccc(Cl)cc1)c1ccnc2ccc(OC)cc12
89

Note, next up: Br.COc1ccc(CC(C)NCC(O)c2cccc(C(F)(F)F)c2)cc1F (centres undefined)
91

Further cases:
State the recorded Inhibition for this entry: CC(=O)N(Cc1cccc(-c2ccc(CNCCc3ccccc3)cc2)c1)C1CCN(Cc2ccccc2)CC1.O=C(O)C(F)(F)F
99

----------
Tested on: Plasmodium falciparum
Assay: GSK_TCMDC: Inhibition of Plasmodium falciparum 3D7 in whole red blood cells, using parasite LDH activity as an index of growth. Test compounds present at 2uM
Assay type: functional
Experimental Readout: Inhibition (%)
Enter your answer as a number in %; do not include the unit.

State the recorded Inhibition for this entry: O=[N+]([O-])c1ccc(Oc2c(Cl)cc(S(=O)(=O)NC3CCC(CN4CCC(c5c[nH]c6ccccc56)CC4)CC3)cc2Cl)c(Cl)c1 (centres undefined)
100

Note, next up: CCOc1ccc(CN(CCc2ccc3c(c2)OCO3)Cc2cc(OC)ccc2O)cc1.O=C(O)C(=O)O
96

Note, next up: O=C(/C=C/c1cc(C(F)(F)F)ccc1F)N1CCC(CN2CCC(c3c[nH]c4ccccc34)CC2)CC1
96

Would you kindly look at the next entry?
State the recorded Inhibition for this entry: Cc1ccc(CC(C)NCC(O)c2cccc(Br)c2)cc1 (centres undefined)
99

----------
// reported Inhibition per item
Tested on: Plasmodium falciparum
Assay: GSK_TCMDC: Inhibition of Plasmodium falciparum 3D7 in whole red blood cells, using parasite LDH activity as an index of growth. Test compounds present at 2uM
Format: functional
Enter your answer as a number in %; do not include the unit.

State the recorded Inhibition for this entry: COc1ccc(C(=O)c2ccc3[nH]cc(C4=CCN(C)CC4)c3c2)cc1
88

Note, next up: COc1cccc(CCNC(C)Cc2ccc(OCCCCOc3ccccc3)cc2)c1 (centres undefined)
97

Note, next up: C=CCOc1ccccc1CNCC(O)c1cccc(C(F)(F)F)c1 (centres undefined)
99

Note, next up: Cc1[nH]c2cc(Cl)ccc2c1C1=CCN(CCN2CCOc3c(Br)cccc3C2=O)CC1.Cl
90

----------
// reported Inhibition per item
Test system: Plasmodium falciparum
Experiment: GSK_TCMDC: Inhibition of Plasmodium falciparum Dd2 in whole red blood cells, using parasite LDH activity as an index of growth. Test compounds present at 2uM
Assay type: functional
Enter your answer as a number in %; do not include the unit.

Consider the worked cases shown below.
State the recorded Inhibition for this entry: CCC1CN2CCc3cc(OC)c(OC)cc3C2CC1CC1NCCc2c1[nH]c1ccc(O)cc21 (stereo not drawn)
100

Note, next up: Cc1[nH]c2cc(Cl)ccc2c1C1=CCN(CCCCC2(C)C(=O)Nc3c(F)cccc32)CC1 (stereo not drawn)
74

Further cases:
State the recorded Inhibition for this entry: COC(C(=O)OCCC1CCCN1C)(c1ccccc1)C1CCCCC1 (stereo not drawn)
5

Note, next up: CC[C@H]1CN2CC[C@H]1C[C@H]2[C@H](O)c1cc(N2CCCC(CO)C2)nc2ccc(OC)cc12 (stereo partly drawn)
99

Note, next up: CCCCCCCc1cc(O)c2c3c(c(=O)oc2c1)CN(C)CC3
100

Note, next up: COc1cccc(CCNC(C)Cc2ccc(OCCCCOc3ccccc3)cc2)c1 (stereo not drawn)
90

Note, next up: Cl.Fc1ccc2[nH]cc(CCN3CCC(CNCc4ccccc4)CC3)c2c1
94

----------
Test system: Plasmodium falciparum
Experiment: GSK_TCMDC: Inhibition of Plasmodium falciparum Dd2 in whole red blood cells, using parasite LDH activity as an index of growth. Test compounds present at 2uM
Type: functional
// reported Inhibition per item
Enter your answer as a number in %; do not include the unit.

Fill in the recorded Inhibition for this molecule, with Plasmodium falciparum as test system: COCCNCc1ccc(-c2cccc(CN(C(=O)CCC3CCCC3)C3CCN(Cc4ccccc4)CC3)c2)cc1.O=C(O)C(F)(F)F
86

Further cases:
Fill in the recorded Inhibition for this molecule, with Plasmodium falciparum as test system: O=C(/C=C/c1ccc(Cl)c(Cl)c1)N1CCC(CN2CCC(c3c(Br)[nH]c4ccccc34)CC2)CC1
99

Note, next up: O=C(O)c1ccc2nc(-c3ccc(-c4ccccc4)cc3)n(C3CCN(Cc4ccc(-c5ncc[nH]5)cc4)CC3)c2c1
99

Note, next up: O=C(C=Cc1ccc(Br)cc1)NC1CCC(CN2CCC(c3c[nH]c4ccccc34)CC2)CC1 (centres undefined)
98

----------
Tested on: Plasmodium falciparum
Experiment: GSK_TCMDC: Inhibition of Plasmodium falciparum 3D7 in whole red blood cells, using parasite LDH activity as an index of growth. Test compounds present at 2uM
Format: functional
Experimental Readout: Inhibition (%)
Enter your answer as a number in %; do not include the unit.

Fill in the recorded Inhibition for this compound, with Plasmodium falciparum as test system: O=C(Nc1ccc(Oc2ccccc2)cc1)N1CCC(CN2CCC(c3c[nH]c4ccccc34)CC2)CC1
100

Note, next up: CC[C@H]1CN2CC[C@@H]1C[C@H]2[C@H](O)c1cc(N2CCC(C(N)=O)CC2)nc2ccc(OC)cc12
99

Note, next up: CNCCCCCCc1ccc(CC(C)NCC(O)c2cccc(Cl)c2)cc1.Cl (configuration not stated)
94

Note, next up: COc1cccc(O)c1CNCC(O)c1cccc(C(F)(F)F)c1 (configuration not stated)
98

Note, next up: CC[C@H]1CN2CC[C@H]1C[C@H]2[C@H](O)c1cc(-c2ccc(Cl)c(Cl)c2)nc2ccc(OC)cc12.Cl
98

Note, next up: COc1cc(C=CC(=O)N2CCC(CN3CCC(c4c[nH]c5ccccc45)CC3)CC2)cc(OC)c1
95

Note, next up: CNCC(O)c1cc(Cl)c(Cl)cc1C.Cl (configuration not stated)
98

Note, next up: CC(C)n1ncc2c(C(=O)Nc3ccc(C#N)c(Cl)c3)cc(C3CC3)nc21
93

Note, next up: CC(=O)C1(c2ccccc2)CCN(CCC2(c3ccc(Cl)c(Cl)c3)CN(C(=O)Nc3cccc(C(F)(F)F)c3)CCO2)CC1 (configuration not stated)
95

Note, next up: O=C(/C=C/c1ccc(Cl)c(Cl)c1)N1CCC(CN2C3CCC2CC(c2c[nH]c4ccccc24)C3)CC1 (configuration not stated)
100

Note, next up: CC[C@H]1CN2CC[C@@H]1C[C@H]2[C@H](O)c1cc(N2CCC(N3CCCCC3)CC2)nc2ccc(OC)cc12
99

Note, next up: Cl.Cl.c1ccc2c(NCCCCCCNc3c4ccccc4nc4ccccc34)c3ccccc3nc2c1
99

Note, next up: CC[C@H]1CN2CC[C@H]1C[C@H]2[C@H](O)c1cc(-c2ccc(OC(F)(F)F)cc2)nc2ccc(OC)cc12.Cl
98

Note, next up: C[C@H](Cc1ccc(OCCCCCCOc2ccccc2)cc1)NC[C@H](O)c1cccc(Cl)c1.Cl
93

Note, next up: COCC(=O)N(Cc1ccccc1-c1ccc(CNCCc2ccccc2)cc1)C1CCN(Cc2ccccc2)CC1.O=C(O)C(F)(F)F
94

Note, next up: CC(C)CNCc1ccc(-c2ccc(CN(C(=O)NC3CCCCC3)C3CCN(Cc4ccccc4)CC3)cc2)cc1.O=C(O)C(F)(F)F
100

Note, next up: COc1ccc(CC(C)NCC(O)c2cccc(Cl)c2F)cc1 (configuration not stated)
88
